- assay method text: yeast display, Sf9 membrane polyspecificity reagent, FACS + sequencing; frameworks hold sequencing errors
measure: polyreactivity (PSR sort gate)

In the examples that follow, each entry is paired with its recorded polyreactivity (PSR sort gate).
### Prompt Could you please provide reported polyreactivity (PSR sort gate) for QVQLVESGGGLVQAGGSLRLSCAASGRIFWYYGMGWYRQAPGKERELVASIRSGGSTNYADSVKGRFTISRDNAKNSVYLQMNSLKPEDTAVYYCAARPDYRYHYWGQGTQVTVSS ? Thanks!
### Response high polyreactivity

### Prompt Please supply the value of reported polyreactivity (PSR sort gate) for the item QVQLVESGGGLVQAGGSLRLSCAASGFTFHYNAMGWYRQAPRKEREFVAAISGSGDRTYYADSVKGRFTISRDNAKNTVYLQMNSLKPEDTAVYYCATSVRQNYFYSYDYWGQGTQVTVSS
### Response high polyreactivity

### Prompt Check the records and state polyreactivity (PSR sort gate) for QVQLVESGGGLVQAGGSLRLSCAASGSIFRDNGMGWYRQAPGKERELVAAINSGDSTYYADSVKGRFTISRDNAKNTVYLQMNSLKPEDTAVYYCNADDRRALSQRQYDWYDYWGQGTQVTVSS
### Response low polyreactivity

### Prompt Indicate the recorded polyreactivity (PSR sort gate) value for this sequence: QVQLVESGGGLVQAGGSLRLSCAASGSIFGKNAMGWYRQAPGKERELVAAITWSGGSTYYADSVKGRFTISRDNAKNTVYLQMNSLKPEDTAVYYCNAVRVRVTSHRIRQLDYGYWGQGTQVTVSS
### Response low polyreactivity

### Prompt Recall and state the measured polyreactivity (PSR sort gate) for QVQLVESGGGLVQAGGSLRLSCAASGFIFPSYAMGWYRQAPGKERELVATISKRVATTYYADSVKGRFTISRDNAKNTVYLQMNSLKPEDTAVYYCAAAYRGYARHDYWGQGTQVTVSS .
### Response high polyreactivity

### Prompt Identify measured polyreactivity (PSR sort gate) associated with QVQLVESGGGLVQAGGSLRLSCAASGSIFPFNAMGWYRQAPGKERELVAAITRSGGSTYYADSVKGRFTISRDNAKNTVYLQMNSLKPEDTAVYYCANDPEWPLPDFYYWGQGTQVTVSS
### Response low polyreactivity

### Prompt For the sequence QLQLVESGGGLVQAGGSLRISCAASRSTFENNAMGWYRQAPGKERELVASSTNYADSVKGRFTISRDNAKNTVYLQMNSLKPEDTAVYYCAREQGVNRNHDYWGQATQVTVSS , report polyreactivity (PSR sort gate).
### Response low polyreactivity

### Prompt Name the recorded polyreactivity (PSR sort gate) of the item QVQLVESGGGLVQAGGSLRLSCAASGNIFYPNAMGWYRQAPWKERELVARISWRGVSTYYADSVKGRFTISRDNAKNNVYLQMNSLKPEDTEVYYCNVRPYYGRTRIKYDYWGQGTQVTVSS in your answer.
### Response high polyreactivity

***
### Prompt Give the reported polyreactivity (PSR sort gate) for this sequence. QVQLVESGGRLVQAGGSLRLSCAASGRTFGYYAKGLSRQAQGKEREFVAAISFRTTSTYYADSVKGRFTISRDNAKNTVYLQMISLKPEDTAVYYCNVVVKGAWDYYPYDYWGQGPQVTVSS
### Response high polyreactivity

### Prompt Return polyreactivity (PSR sort gate) for the following sequence: QVQLEESGGGLVQAGGRLRLSCAASGSIWSYAMGWYRQAPGKERELVAAISSTGGSTYYADSVKGRFTISRDNAKNTVYLQMNSLKPEDTAVYYCAKGRRYDQSHYNYWGQGTQVNVSS
### Response high polyreactivity

### Prompt Please report the measured polyreactivity (PSR sort gate) for QVQLVESGGGLVQAGGSLRLSCAASGRTLKYNAMGWYRQAPGKERELVAAISYSGSSTYYADSVKGRFTISRDNAKNTVYLQMNSLKPEDTAVYYCNTARPTAAYDYWGQGTQVTVSS
### Response low polyreactivity

### Prompt Give recorded polyreactivity (PSR sort gate). QVQLVESGGGLVQAGGSLRLSCAASGITIYGYAMGWYRQAPGKERELVAAITRSGGGTYYADSVKGRFTISRDNEKNTVYLQMISLKPEDTAVYYCAADSYSQYTMDYWGQGTQVTVSS
### Response high polyreactivity

### Prompt Return value of polyreactivity (PSR sort gate) for input QVQLVESGGGLVEAGGSHRLTCAASGSTFGWYPIGWYRQAPGTERELVAGINSRGGSTYYADSVKGRFTISRDNAQNTVYLQMNSLKPEDTAVYYCNTVWASRRAHDYWGQGTQVTVSS , no commentary.
### Response high polyreactivity

### Prompt Answer with the recorded polyreactivity (PSR sort gate) for the sequence listed here: QVQLVESGGGLVQAGGSLRLSCAASGFILPTYAMGWYRQAPGKERELVAAITRSGGSTYYADSVKGRFTISRDNAKNTVYLQMNSLKPEDTAVYYCAAQRLSASRPYGYWGQGTQVTVSS
### Response high polyreactivity

### Prompt Give the value of polyreactivity (PSR sort gate) reported for the following: QVQLVESGGGLVQAGGSLRLSCAASGRIFRKNVMGWYRQAPGKERELVATIRTGGTTNYADSVKGRFTISRDNAKNTVYLQMNSLKPEDTAVYYCAADRGGRAGFDYWGQGTQVTVSS
### Response high polyreactivity

### Prompt Determine from records and report polyreactivity (PSR sort gate) for QVQLVESGGGKVQAGGSLRLICAASGSTFSSYAMGWYRQAPGKERELVAGISRGGSSTDYADSVKGRFTISRDNAKNTVYLQMNSLKPEDPAVYYCNAKVWWSFNGLEYDYWGQGTQVTVSS
### Response low polyreactivity

### Prompt Identify measured polyreactivity (PSR sort gate) associated with QDQLVESAGGLVQAGGSLRLICAATGSNFNRYAMGWYRQAAGKEREFVAAITRRGGNTYYADSVKGRFTISRDHPKNTVYLQMNSLKPVDTAVYYCAAPFYFPAGLLYYENNYWGHGTQVTVSS
### Response high polyreactivity

### Prompt For QVQLVESGGGLVQAGGSLRLSCAASGRIFYPYAMGWYIQAPGKEREFVATIRARCGDSTSYADSVKGRFTISRDIAKNTVYLQMNSLKPEDTAVYYCAALFYTYRWRYYVYHMDYWGQGTQVTVSS , write its polyreactivity (PSR sort gate).
### Response low polyreactivity

### Prompt Answer with reported polyreactivity (PSR sort gate) of QVQLVESGGGLVQAGGSLRLSCAASGRTLRKYAMGWYRQAPGKERELVAAITTSGGSTYYADSVKGRFTISRDNAKNTVYLQMNSLKPEDTAVYYCNAARYYAYIGDYWGQGTQVTVSS
### Response high polyreactivity

### Prompt Answer with the recorded polyreactivity (PSR sort gate) of QVQLVESGGGLVQAGGSLRLSCAASGSTFCYYGMGWYRQAPGTERELVAAISWSGGTFYADSVKGRFTISRDNAKNTVYLQMNSLKPEDTAVYYCATDYGGPITGYEYWGQGTQVTVSS only.
### Response low polyreactivity

### Prompt Given QVQLVESGGGLVQAGGSLRLSCAASGSIFFRNAMGWYRQAPGKERELVAAITSGGGTYYADSVKGRLTISRDNAKNTVYLQMNSLKPEDTAVYYCAVVRGSRAIKHYYWGQGTQVTVSS , respond with its polyreactivity (PSR sort gate).
### Response high polyreactivity
